- subjectOfTest: ATP-dependent 6-phosphofructokinase (Trypanosoma brucei brucei)
- measurementDescription: qHTS Assay to Find Inhibitors of T. brucei phosphofructokinase; also: nearly all actives have a fitted effect of over 60% in size
- conditionNotes: T. brucei PFK, ADP-Glo luminescence; series mostly up to 57.5 µM
The campaign covered roughly 330,000 compounds. About 560 (0.17%) were called active. Inconclusive results (about 1%) are left out. Calls follow the shape of the dose curve; as a rule, active = well fitted inhibition curve with a large enough effect; inconclusive = small, poorly fitted or top-dose-only effect, or effect the other way; inactive = flat fitted curve, though single readings scatter. The sample holds actives, similar compounds and a random draw of the others, so the mix is not that of the screen.
Form entry, call: pick from active, inactive

// known answers, use as guide
In [3]: df
Out[3]:
                                   compound  classlabel
0     CCCCNC(=O)OCCSCCS(=O)(=O)c1ccc(Cl)cc1    inactive
1  O=c1oc2ccccc2c(CNc2ccccc2)c1[N+](=O)[O-]    inactive

Problem: Record lookup: outcome of this test for COc1ccc(NS(=O)(=O)c2ccc(C)c(C(=O)NNC(=O)c3csc(N4CCOCC4)n3)c2)cc1 ?
Result: inactive

Problem: Subsequent entry: CCOC(=O)N1CCN(C(=O)CN(C2CCCCC2)S(C)(=O)=O)CC1
Result: inactive

Problem: Subsequent entry: CC(Oc1cc2oc(=O)c3c(c2cc1Cl)CCCC3)C(=O)NCc1ccncc1 (configuration not stated)
Result: inactive

* * *

- subjectOfTest: ATP-dependent 6-phosphofructokinase (Trypanosoma brucei brucei)
- measurementDescription: qHTS Assay to Find Inhibitors of T. brucei phosphofructokinase; also: nearly all actives have a fitted effect of over 60% in size
- conditionNotes: T. brucei PFK, ADP-Glo luminescence; series mostly up to 57.5 µM
In all, about 330,000 compounds went through this assay and about 560 (0.17%) were called active. Inconclusive results (about 1%) are left out. The call rests on the fitted dose curve; in most records, active means well fitted inhibition curve with a large enough effect; inconclusive means small, poorly fitted or top-dose-only effect, or effect the other way; inactive means flat fitted curve, though single readings scatter. Shown is part of a subset that was picked to be rich in actives.
Form entry, call: pick from True for active, False for inactive

// known answers, use as guide
In [3]: df
Out[3]:
                                   compound  classlabel
0  CCCCn1c(N)c(N(Cc2ccccc2OC)C(=O)COc2cc(C)ccc2Cl)c(=O)[nH]c1=O       False
1  COCc1ccc(C(=O)N2CCc3c([nH]c4ccccc34)C2c2ccccn2)s1 (configuration not stated)       False
2  Cc1ccc(C2CC(c3cccc(Br)c3)n3nc(N)nc3N2)cc1 (configuration not stated)       False
3  CC(CN1CCC(n2nccc2NC(=O)C2CCCC2)CC1)c1ccccc1 (configuration not stated)       False
4  O=C(C1CCN(c2nnc(-n3cccc3)s2)CC1)N1CCc2ccccc2C1       False

Problem: Record lookup: outcome of this test for CN1C(CC(=O)Nc2ccc(Br)cc2)c2ccccc2CC1(C)C (configuration not stated) ?
Result: False

Problem: Subsequent entry: CN1CCN(C(=O)c2ccc(NS(=O)(=O)c3ccccc3)cc2)CC1
Result: False

Problem: Subsequent entry: CCC(C)c1ccc(NC(=O)COC(=O)C2CCCC2)cc1 (configuration not stated)
Result: False

Problem: Subsequent entry: O=C(COC(=O)c1cccs1)NCc1cccs1
Result: False

Problem: Subsequent entry: Nc1nnc(SCC(=O)NC2CCCc3ccccc32)s1 (configuration not stated)
Result: False

Problem: Subsequent entry: C=Cn1cc[n+](CC(=O)c2ccc(OC)c(OC)c2)c1
Result: False

Problem: Subsequent entry: C/C(=N/N1CCN(Cc2cccc3ccccc23)CC1)c1cccnc1
Result: False

Problem: Subsequent entry: C=CCn1c(C23CC4CC(CC(C4)C2)C3)n[nH]c1=S
Result: False

Problem: Subsequent entry: NCCN1CCN2C(=O)CN(C(=O)c3ccccc3)CC12 (configuration not stated)
Result: False

Problem: Subsequent entry: N=C1/C(=C/c2cccn2-c2cccc([N+](=O)[O-])c2)C(=O)N=C2SC=CN12
Result: False

Problem: Subsequent entry: Cc1ccc(-c2nn(-c3ccccc3)cc2C(=O)NCCCN2CCCC2=O)cc1
Result: False

Problem: Subsequent entry: O=C(COC(=O)C12CC3CC(CC(C3)C1)C2)NCc1ccco1
Result: False

Problem: Subsequent entry: O=C(NCc1ccc(Cl)c(Cl)c1)c1cccnc1
Result: True

Problem: Subsequent entry: O=C(COC(=O)CCC(=O)c1cccs1)NCc1ccco1
Result: True

Problem: Subsequent entry: Cc1ccc(/C=C2/SC(=S)N(CCC(=O)NCCCN3CCOCC3)C2=O)cc1
Result: False

Problem: Subsequent entry: CC(C)c1ccc(N2CCN(C(=O)c3ccccc3NC(=O)/C=C(\C(=O)O)c3ccccc3)CC2)cc1
Result: False

Problem: Subsequent entry: CC1(N2CCOCC2)CC2(O)C(=[N+]1[O-])CCc1nonc12 (configuration not stated)
Result: False

These data points were gathered from PubChem BioAssay AID485367.
